// provenance: ChEMBL document CHEMBL2424622

# Tested target: Aurora kinase B (Homo sapiens)
# Protocol: Competitive binding affinity to AURKB (unknown origin) at 10 uM in presence of ATP relative to control
Observation type: inhibition (%)

In: Look up inhibition for this molecule: "O[C@H]1CC[C@H](Nc2nccc(-n3nnc4ccccc43)n2)CC1"
Out: 68

In: Lookup "O[C@H]1CC[C@H](Nc2nccc(-c3n[nH]c4ccccc34)n2)CC1"
Out: 91

====

# Tested target: Serine/threonine-protein kinase 36 (Homo sapiens) (UniProt Q9NRP7)
# Sequence (Q9NRP7 whole entry): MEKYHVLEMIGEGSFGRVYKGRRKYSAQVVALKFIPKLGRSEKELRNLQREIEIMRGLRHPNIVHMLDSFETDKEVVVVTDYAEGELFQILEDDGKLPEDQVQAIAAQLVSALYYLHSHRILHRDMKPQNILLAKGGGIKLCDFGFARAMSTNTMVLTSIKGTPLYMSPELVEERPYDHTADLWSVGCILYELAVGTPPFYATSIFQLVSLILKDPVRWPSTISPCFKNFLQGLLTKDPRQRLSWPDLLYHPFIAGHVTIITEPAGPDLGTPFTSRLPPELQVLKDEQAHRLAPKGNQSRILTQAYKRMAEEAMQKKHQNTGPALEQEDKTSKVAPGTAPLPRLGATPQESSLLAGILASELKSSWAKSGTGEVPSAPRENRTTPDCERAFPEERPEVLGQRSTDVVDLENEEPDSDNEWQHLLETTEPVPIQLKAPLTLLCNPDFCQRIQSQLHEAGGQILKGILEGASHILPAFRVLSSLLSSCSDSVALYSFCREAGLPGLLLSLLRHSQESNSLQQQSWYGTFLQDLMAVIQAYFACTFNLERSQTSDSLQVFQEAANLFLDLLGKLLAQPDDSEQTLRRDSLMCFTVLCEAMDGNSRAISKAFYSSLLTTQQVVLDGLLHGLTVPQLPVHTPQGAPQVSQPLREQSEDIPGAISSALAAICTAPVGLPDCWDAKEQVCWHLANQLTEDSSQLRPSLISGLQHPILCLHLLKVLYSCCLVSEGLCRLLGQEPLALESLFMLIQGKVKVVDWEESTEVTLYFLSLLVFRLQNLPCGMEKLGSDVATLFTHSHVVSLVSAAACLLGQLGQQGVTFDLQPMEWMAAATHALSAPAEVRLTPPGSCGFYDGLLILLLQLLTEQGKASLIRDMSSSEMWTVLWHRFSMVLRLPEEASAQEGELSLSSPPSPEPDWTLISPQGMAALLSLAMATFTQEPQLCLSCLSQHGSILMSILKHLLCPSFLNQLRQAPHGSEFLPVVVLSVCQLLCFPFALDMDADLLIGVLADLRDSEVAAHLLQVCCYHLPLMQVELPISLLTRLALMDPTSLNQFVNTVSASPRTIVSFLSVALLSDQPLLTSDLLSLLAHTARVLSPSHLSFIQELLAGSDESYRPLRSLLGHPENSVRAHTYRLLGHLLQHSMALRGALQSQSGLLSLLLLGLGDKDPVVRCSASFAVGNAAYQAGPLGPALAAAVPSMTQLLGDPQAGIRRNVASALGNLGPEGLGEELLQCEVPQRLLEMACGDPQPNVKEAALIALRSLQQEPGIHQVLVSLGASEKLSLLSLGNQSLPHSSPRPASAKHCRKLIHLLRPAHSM
# Protocol: Competitive binding affinity to STK36 (unknown origin) at 10 uM in presence of ATP relative to control
Observation type: inhibition (%)

In: Could you share which inhibition value was measured for "O[C@H]1CC[C@H](Nc2nccc(-n3ncc4ccccc43)n2)CC1" ?
Out: 97

In: Same read-out for "O[C@H]1CC[C@H](Nc2nccc(-n3nnc4ccccc43)n2)CC1" ?
Out: 96

In: Request: "O[C@H]1CC[C@H](Nc2nccc(-n3ccc4ccccc43)n2)CC1"
Out: 84

In: Note, next up: "N[C@H]1CC[C@H](Nc2nccc(-n3nnc4ccccc43)n2)CC1"
Out: 100

In: Item: "O=C([C@H]1CC[C@H](Nc2nccc(-n3nnc4ccccc43)n2)CC1)N1CCOCC1"
Out: 95

In: Now the same for "O[C@H]1CC[C@H](Nc2nccc(-c3n[nH]c4ccccc34)n2)CC1"
Out: 99
